Biological target: human LTBR on cells (human, UniProt P36941 31-435)
Experiment: cell-based or functional assay
observable: NFκB luc, 3.66 ng/ml, with x linker (RLU)

binder	test.value
P1AF0079 (antibody, human IgG1, kappa, L234A L235A, V domains shown, human IgG1 PG LALA; from transgenic rabbit immunization; also called LTBR (0079)) VH: EVQLLESGGALVQPGGSLRLSCAASGFTFSSYAMSWVRQAPGKGLEWVSVITGSSSSIDYADSVKGRFTISRDNSKNTLYLQMNSLRAEDTAVYYCAKGGSGVWSISTDFDYWGQGTLVTVSS VL: DIQMTQSPSFLSASVGDRVTITCQASQDISNYLNWYQQKPGKAPKHLIYAASSLHSGVPSRFSGSGSGAYFTLTITSLQPEDFATYYCQQSHSTPPTFGPGTKVDIKR	12200
P1AE9457 (antibody, human IgG1, kappa, L234A L235A, V domains shown, human IgG1 PG LALA; from transgenic rabbit immunization; also called LTBR (9457)) VH: EVQLLESGGGLVQPGGSLRLSCAASGFTFSNYAMTWVRQAPGKGLEWVSEISGSGGSTYYADSVKGRFTISRDNSKNTLYLQMNSLRAEDTAVYYCAKDDDGAYGDTMDVWGQGTTVTVSS VL: DIQMTQSPSSLSASIGDRVTITCRASQDISNYLNWYQQKPGKAPKLLIYAASALQSGVPSRFSGSGSGTDFTLTISSLQPEDFATYYCQHYKSYPYTFGQGTKVEIRR	15300
P1AE9450 (antibody, human IgG1, kappa, L234A L235A, V domains shown, human IgG1 PG LALA; from transgenic rabbit immunization; also called LTBR (9450)) VH: EVQLLESGGGLVQPGGSLRLSCAASGFTVSSYVMKWFRQAPGKGLEWVSSISGSGGRPFYADSVKGRFTISRDNSKNALYLQMNSLRAEDTAVYYCANDMDVWGQGTTVTVSS VL: DIQMTQSPSSLSASVGDRVTITCRASQDISSFLKWYQQKPGKAPTLLIYAASALQSGVPSRFSGSGSGTDFTLTISSLQPEDFATYYCQQYNTYPLTFGGGTKVDIKR	20100

# credit: patent US20250034269A1
